test system: 276233-004-R-J1-PDC complex spheroid viability; assay: Anticancer human tumor 276233-004-R-J1-PDC patient-derived colon adenocarcinoma cell line growth inhibition [GQUAD]; conditions: second compound 3.16 µM; first compound 0.0316 µM; active compounds read low
Quick reference for viability, T/C among some compounds
State the answer as a number, implicitly in %.

# COMPOUND, TEST TARGET, MEASURED VALUE
data = [
    ("CC1COCCN1c1cc(-c2ccnn2C)c2ccnc(-c3ccn[nH]3)c2n1 (stereo unspecified) + Cc1[nH]c2ccc(F)cc2c1-c1nc2c3cccnc3c3ncccc3c2[nH]1", "276233-004-R-J1-PDC complex spheroid viability", 48.1),
    ("O=C(NO)c1cnc(N2CCN(S(=O)(=O)c3ccc4ccccc4c3)CC2)nc1 + Cc1cnc(CNC(=O)c2c(=O)c3ccc(N4CCCN(C)CC4)nc3n3c2sc2ccccc23)cn1", "276233-004-R-J1-PDC complex spheroid viability", 72.2),
    ("CC(C)n1c(=O)n(C)c2cnc3cc(F)c(-c4ccc(OCCCN5CCCCC5)nc4)cc3c21 + CN(C)c1ccc(Nc2c3ccc(NC(=O)CCN4CCCC4)cc3nc3cc(NC(=O)CCN4CCCC4)ccc23)cc1", "276233-004-R-J1-PDC complex spheroid viability", 55.9),
    ("C#Cc1c(F)ccc2cc(O)cc(-c3ncc4c(N5CC6CCC(C5)N6)nc(OCC56CCCN5CC(F)C6)nc4c3F)c12 (stereo unspecified) + Cc1cnc(CNC(=O)c2c(=O)c3ccc(N4CCCN(C)CC4)nc3n3c2sc2ccccc23)cn1", "276233-004-R-J1-PDC complex spheroid viability", 65.2),
    ("CC1COCCN1c1cc(C2(O)CC3CCC(C2)O3)c2cnn(-c3ccn[nH]3)c2n1 (stereo unspecified) + CN(C)c1ccc(Nc2c3ccc(NC(=O)CCN4CCCC4)cc3nc3cc(NC(=O)CCN4CCCC4)ccc23)cc1", "276233-004-R-J1-PDC complex spheroid viability", 57.6),
    ("C=CCn1c(=O)c2cnc(Nc3ccc(N4CCN(C)CC4)cc3)nc2n1-c1cccc(C(C)(C)O)n1 + Cc1cnc(CNC(=O)c2c(=O)c3ccc(N4CCCN(C)CC4)nc3n3c2sc2ccccc23)cn1", "276233-004-R-J1-PDC complex spheroid viability", 76.5),
    ("Cn1ncnc1[C@H]1c2n[nH]c(=O)c3cc(F)cc(c23)N[C@@H]1c1ccc(F)cc1 + CN(C)c1ccc(Nc2c3ccc(NC(=O)CCN4CCCC4)cc3nc3cc(NC(=O)CCN4CCCC4)ccc23)cc1", "276233-004-R-J1-PDC complex spheroid viability", 60.7),
    ("COc1cccc2c1C(=O)c1c(O)c3c(c(O)c1C2=O)CC(O)(C(=O)CO)CC3OC1CC(N)C(O)C(C)O1 (stereo unspecified) + Cc1cnc(CNC(=O)c2c(=O)c3ccc(N4CCCN(C)CC4)nc3n3c2sc2ccccc23)cn1", "276233-004-R-J1-PDC complex spheroid viability", 78.1),
    ("CC1COCCN1c1cc(-c2ccnn2C)c2ccnc(-c3ccn[nH]3)c2n1 (stereo unspecified) + Cc1cnc(CNC(=O)c2c(=O)c3ccc(N4CCCN(C)CC4)nc3n3c2sc2ccccc23)cn1", "276233-004-R-J1-PDC complex spheroid viability", 63.1),
    ("CCCS(=O)(=O)Nc1ccc(F)c(C(=O)c2c[nH]c3ncc(-c4ccc(Cl)cc4)cc23)c1F + Cc1[nH]c2ccc(F)cc2c1-c1nc2c3cccnc3c3ncccc3c2[nH]1", "276233-004-R-J1-PDC complex spheroid viability", 18.2),
]

Note: attention shifts to another entry.
Q: Which viability, T/C is listed for C#Cc1c(F)ccc2cc(O)cc(-c3ncc4c(N5CC6CCC(C5)N6)nc(OCC56CCCN5CC(F)C6)nc4c3F)c12 (stereo unspecified) + Cc1[nH]c2ccc(F)cc2c1-c1nc2c3cccnc3c3ncccc3c2[nH]1 ?
Result: 19.1

----------
tested on: 276233-004-R-J1-PDC complex spheroid viability; test: Anticancer human tumor 276233-004-R-J1-PDC cell line growth inhibition [GQUAD]; conditions: second compound 0.0316 µM; first compound 0.1 µM; active compounds read low;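 also: spheroids exposed to drugs for seven days; 100% = DMSO vehicle control viability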
Listing: viability, T/C of selected compounds
// units = %; emit number, no label

These solved cases illustrate the format of a correct answer.
# COMPOUND, UNIT ABBREV, viability, T/C
data = [
    ("COc1cc(C2c3cc4c(cc3C(OC3OC5COC(C)OC5C(O)C3O)C3COC(=O)C23)OCO4)cc(OC)c1O (stereo not given) + Cc1cnc(CNC(=O)c2c(=O)c3ccc(N4CCCN(C)CC4)nc3n3c2sc2ccccc23)cn1", "%", 91.7),
    ("CC1COCCN1c1cc(C2(O)CC3CCC(C2)O3)c2cnn(-c3ccn[nH]3)c2n1 (stereo not given) + Cc1[nH]c2ccc(F)cc2c1-c1nc2c3cccnc3c3ncccc3c2[nH]1", "%", 68),
    ("CC1COCCN1c1cc(C2(O)CC3CCC(C2)O3)c2cnn(-c3ccn[nH]3)c2n1 (stereo not given) + CN(C)c1ccc(Nc2c3ccc(NC(=O)CCN4CCCC4)cc3nc3cc(NC(=O)CCN4CCCC4)ccc23)cc1", "%", 80.9),
    ("Nc1ccn(C2OC(CO)C(O)C2(F)F)c(=O)n1 (stereo not given) + Cc1cnc(CNC(=O)c2c(=O)c3ccc(N4CCCN(C)CC4)nc3n3c2sc2ccccc23)cn1", "%", 77.7),
]

Q: // viability, T/C lookup, key: COc1ncnc(C2CC2)c1-c1ncc2cnn(Cc3ccc(-c4nc(C(F)(F)F)cn4C(C)C)cc3)c2n1 + CN(C)c1ccc(Nc2c3ccc(NC(=O)CCN4CCCC4)cc3nc3cc(NC(=O)CCN4CCCC4)ccc23)cc1
Result: 84.2

----------
system: 276233-004-R-J1-PDC complex spheroid viability; assay: Anticancer human tumor 276233-004-R-J1-PDC cell line growth inhibition [GQUAD]; details: second compound 3.16 µM; first compound 0.316 µM; active compounds read low;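 also: spheroids exposed to drugs for seven days; 100% = DMSO vehicle control viability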
As shown below, each of these molecules has a reported viability, T/C value.
Respond with the bare value in %.

Worked set:
# MOLECULE, MEASURED VALUE
records = [
    ("COc1ccc([C@@H](O)c2cc(-c3ncnc4cc(N5CCOCC5)ccc34)c(F)cc2Cl)nn1 + CN(C)c1ccc(Nc2c3ccc(NC(=O)CCN4CCCC4)cc3nc3cc(NC(=O)CCN4CCCC4)ccc23)cc1", 47.6),
    ("CC1COCCN1c1cc(C2(O)CC3CCC(C2)O3)c2cnn(-c3ccn[nH]3)c2n1 (stereo not given) + Cc1[nH]c2ccc(F)cc2c1-c1nc2c3cccnc3c3ncccc3c2[nH]1", 43.2),
    ("C=CCn1c(=O)c2cnc(Nc3ccc(N4CCN(C)CC4)cc3)nc2n1-c1cccc(C(C)(C)O)n1 + Cc1[nH]c2ccc(F)cc2c1-c1nc2c3cccnc3c3ncccc3c2[nH]1", 28.1),
    ("O=c1[nH]cc(F)c(=O)[nH]1 + CN(C)c1ccc(Nc2c3ccc(NC(=O)CCN4CCCC4)cc3nc3cc(NC(=O)CCN4CCCC4)ccc23)cc1", 54.9),
]

Okay, next one:
Q: Given the entry C#Cc1c(F)ccc2cc(O)cc(-c3ncc4c(N5CC6CCC(C5)N6)nc(OCC56CCCN5CC(F)C6)nc4c3F)c12 (stereo not given) + Cc1[nH]c2ccc(F)cc2c1-c1nc2c3cccnc3c3ncccc3c2[nH]1 , report its measured viability, T/C.
Result: 12.7

----------
The entries below come with measured viability, T/C values attached.
test system: 276233-004-R-J1-PDC complex spheroid viability; assay: Anticancer human tumor 276233-004-R-J1-PDC cell line growth inhibition [GQUAD]; settings: second compound 10 µM; first compound 0.00316 µM; active compounds read low;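 also: spheroids exposed to drugs for seven days; 100% = DMSO vehicle control viability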
Write the value in % as a bare number.

Recorded viability, T/C, per entry:
# COMPOUND, TEST TARGET, MEASURED ENDPOINT, MEASURED VALUE
rows = [
    ("Cn1ncnc1[C@H]1c2n[nH]c(=O)c3cc(F)cc(c23)N[C@@H]1c1ccc(F)cc1 + Cc1[nH]c2ccc(F)cc2c1-c1nc2c3cccnc3c3ncccc3c2[nH]1", "276233-004-R-J1-PDC complex spheroid viability", "viability, T/C", 47.3),
    ("CC[C@@]1(O)C(=O)OCc2c1cc1n(c2=O)Cc2cc3c(CN(C)C)c(O)ccc3nc2-1 + CN(C)c1ccc(Nc2c3ccc(NC(=O)CCN4CCCC4)cc3nc3cc(NC(=O)CCN4CCCC4)ccc23)cc1", "276233-004-R-J1-PDC complex spheroid viability", "viability, T/C", 58.5),
    ("Cn1ncnc1[C@H]1c2n[nH]c(=O)c3cc(F)cc(c23)N[C@@H]1c1ccc(F)cc1 + Cc1cnc(CNC(=O)c2c(=O)c3ccc(N4CCCN(C)CC4)nc3n3c2sc2ccccc23)cn1", "276233-004-R-J1-PDC complex spheroid viability", "viability, T/C", 59.1),
    ("CCc1c2c(nc3ccc(O)cc13)-c1cc3c(c(=O)n1C2)COC(=O)[C@]3(O)CC + Cc1cnc(CNC(=O)c2c(=O)c3ccc(N4CCCN(C)CC4)nc3n3c2sc2ccccc23)cn1", "276233-004-R-J1-PDC complex spheroid viability", "viability, T/C", 88.4),
    ("CC[C@@]1(O)C(=O)OCc2c1cc1n(c2=O)Cc2cc3c(CN(C)C)c(O)ccc3nc2-1 + Cc1[nH]c2ccc(F)cc2c1-c1nc2c3cccnc3c3ncccc3c2[nH]1", "276233-004-R-J1-PDC complex spheroid viability", "viability, T/C", 40.5),
]

Q: Bench note: what viability, T/C did CCc1c2c(nc3ccc(O)cc13)-c1cc3c(c(=O)n1C2)COC(=O)[C@]3(O)CC + CN(C)c1ccc(Nc2c3ccc(NC(=O)CCN4CCCC4)cc3nc3cc(NC(=O)CCN4CCCC4)ccc23)cc1 show?
Result: 55.1

Q: viability, T/C for Cc1[nH]c2ccccc2c1CCNCc1ccc(/C=C/C(=O)NO)cc1 + CN(C)c1ccc(Nc2c3ccc(NC(=O)CCN4CCCC4)cc3nc3cc(NC(=O)CCN4CCCC4)ccc23)cc1 ?
Result: 39.6
